Data provenance is PubChem BioAssay (Tox21).

- experiment.summary: qHTS assay to test for compound auto fluorescence at 590 nm (red) in HEK293 cell free culture (AID 720683); further: on the % scale 0 is the no-effect control and ±100 the full control effect
- condition.description: cell-free medium autofluorescence, Ex540/Em590 red; series mostly up to 91.3 µM
- Description: U.S. Tox21 Program National Center for Advancing Translational Sciences [NCATS] NIH Chemical Genomics Center [NCGC] U.S. Environmental Protection Agency [EPA] National Institutes of Environmental Health Sciences [NIEHS] National Toxicology Program [NTP] U.S. Food and Drug Administration [FDA] Tox21 Assay Overview: Compound auto fluorescence often interferes with screening of the compound library against various biological targets and signaling pathways. […] This assay includes the red fluorescence data. […]
Active and inactive are the calls of the source. The call rests on the fitted dose curve; in most records, active means well fitted curve in the direction sought with a large enough effect in the repeat runs; inconclusive means weak or mixed curves; inactive means flat fitted curve, though single readings scatter.
quantity.name: fluorescence, % of fluorescent control

For orientation, consider the following solved cases.
[[record]]
compound = "C=CC(=C)CCCC(C)(C)OC(C)=O"
result_value = "inactive"

[[record]]
compound = "N#C/C(=C1\\SCC(c2ccccc2Cl)S1)n1ccnc1 (stereo unspecified)"
result_value = "inactive"

[[record]]
compound = "CC1(C)O[C@@H]2C[C@H]3[C@@H]4CCC5=CC(=O)C=C[C@]5(C)[C@H]4[C@@H](O)C[C@]3(C)[C@]2(C(=O)CO)O1"
result_value = "inactive"

[[record]]
compound = "Cc1ccc(S(=O)(=O)NC2CCCCC2)cc1"
result_value = "inactive"

[[record]]
compound = "CC(=O)OCC(=O)[C@@]12OC(C)(C)O[C@@H]1C[C@H]1[C@@H]3C[C@H](F)C4=CC(=O)C=C[C@]4(C)[C@@]3(F)[C@@H](O)C[C@@]12C"
result_value = "0.389% [at 18.6 µM] (inactive)"

[[record]]
compound = "OC/C(Br)=C(\\Br)CO"
result_value = "inactive"

[[record]]
compound = "O=C(O)c1cccc(O)c1"
result_value = "inactive"

[[record]]
compound = "Cc1ccc(S)cc1"
result_value = "inactive"


Quick request: fluorescence, % of fluorescent control for each listed item, please.
1. O=C(/C=C/c1ccccc1)OCCCc1ccccc1
2. CCCCCCCCCCOS(=O)(=O)O
3. CC1CC(O)CC(C)(C)C1 (stereo unspecified)
4. CO[C@H]1O[C@H](CO)[C@@H](O)[C@H](O)[C@H]1O
5. COc1cc2[nH]c(=O)[nH]c(=O)c2cc1OC

Result ::
1: inactive; 2: inactive; 3: inactive; 4: inactive; 5: 0.224% [at 18.6 µM] (inactive)
